target: human F508del-CFTR (Homo sapiens, UniProt P13569, DEL508-508)
Sequence (P13569 with tags, fused parts or gaps DEL508-508): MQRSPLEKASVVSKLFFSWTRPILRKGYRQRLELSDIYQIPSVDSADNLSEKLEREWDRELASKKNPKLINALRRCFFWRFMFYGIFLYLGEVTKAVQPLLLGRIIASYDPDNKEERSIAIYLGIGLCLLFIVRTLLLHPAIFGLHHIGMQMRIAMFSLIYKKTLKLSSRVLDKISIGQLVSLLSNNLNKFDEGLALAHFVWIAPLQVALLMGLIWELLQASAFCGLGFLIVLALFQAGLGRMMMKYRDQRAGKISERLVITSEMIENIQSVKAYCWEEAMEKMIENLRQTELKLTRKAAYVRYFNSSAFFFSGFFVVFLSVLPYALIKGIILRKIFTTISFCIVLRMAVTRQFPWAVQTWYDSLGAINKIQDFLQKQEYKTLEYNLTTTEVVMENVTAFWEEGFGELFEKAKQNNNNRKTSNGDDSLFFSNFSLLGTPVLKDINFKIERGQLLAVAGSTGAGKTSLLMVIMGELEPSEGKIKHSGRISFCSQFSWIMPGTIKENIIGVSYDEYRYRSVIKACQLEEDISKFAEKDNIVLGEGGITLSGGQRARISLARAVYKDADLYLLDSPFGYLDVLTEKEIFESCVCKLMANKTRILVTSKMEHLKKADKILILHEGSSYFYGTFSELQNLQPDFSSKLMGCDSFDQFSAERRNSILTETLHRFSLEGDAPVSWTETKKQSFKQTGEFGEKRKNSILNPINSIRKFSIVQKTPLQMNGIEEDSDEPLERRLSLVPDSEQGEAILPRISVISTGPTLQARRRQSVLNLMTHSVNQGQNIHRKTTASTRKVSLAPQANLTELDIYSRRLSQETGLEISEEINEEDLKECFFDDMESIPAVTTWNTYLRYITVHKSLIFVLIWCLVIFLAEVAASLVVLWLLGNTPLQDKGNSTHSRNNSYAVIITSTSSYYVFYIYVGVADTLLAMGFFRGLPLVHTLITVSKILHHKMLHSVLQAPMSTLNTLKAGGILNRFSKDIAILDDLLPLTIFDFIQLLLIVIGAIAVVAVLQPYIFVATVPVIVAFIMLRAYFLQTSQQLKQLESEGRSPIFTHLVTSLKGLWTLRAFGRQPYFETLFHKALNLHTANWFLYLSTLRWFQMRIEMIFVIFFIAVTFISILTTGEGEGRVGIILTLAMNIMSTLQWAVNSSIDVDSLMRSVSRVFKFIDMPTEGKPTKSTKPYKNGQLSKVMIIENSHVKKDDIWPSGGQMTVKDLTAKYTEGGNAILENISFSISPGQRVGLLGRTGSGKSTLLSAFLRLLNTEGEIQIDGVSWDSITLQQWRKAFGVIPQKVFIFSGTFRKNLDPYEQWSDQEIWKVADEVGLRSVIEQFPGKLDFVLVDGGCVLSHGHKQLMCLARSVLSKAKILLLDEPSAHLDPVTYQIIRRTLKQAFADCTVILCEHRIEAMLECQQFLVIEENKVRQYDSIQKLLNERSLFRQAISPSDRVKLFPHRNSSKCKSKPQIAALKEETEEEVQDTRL
assay overview: F508del-CFTR cell surface expression (corrector activity), DiscoveRx ß-galactosidase complementation chemiluminescence assay in recombinant U2OS cell line;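 note: U2OS cells co-expressing ProLink-tagged F508del-CFTR and a membrane-anchored enzyme acceptor, where more surface CFTR restores β-galactosidase activity measured by chemiluminescence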
study conditions: U2OS, in relation to Emax of corrector lumacaftor (=100%); arithmetic mean values
observed property: Emax (%)
Write the number in % without appending the unit.

The following compounds have reported results that may help.
QUERY: Supply reported Emax belonging to this compound: CC(C)C[C@H]1C(=O)N2CCCC[C@@H]2C(=O)N[C@H](Cc2ccccc2)COc2cnc3c(F)cccc3c2C(=O)N[C@H](C(=O)NCCc2noc(C3CC3)n2)CC(=O)N1C
RESULT: 313

QUERY: Supply reported Emax belonging to this compound: Cc1nc2ccc3c(c2o1)C(=O)N[C@H](C(=O)NCCc1cccc(OC(F)F)c1)CC(=O)N(C)[C@@H](CC(C)C)C(=O)N1CCN(C2CC2)C[C@@H]1C(=O)N[C@H](Cc1ccccc1)CO3
RESULT: 243

QUERY: Supply reported Emax belonging to this compound: CO[C@H]1C[C@]2(C1)C(=O)N[C@H](Cc1ccccc1)COc1cnc3ccccc3c1C(=O)N[C@H](C(=O)NCCc1ccc(-n3nccn3)cc1)CC(=O)N(C)[C@@H](CC(C)C)C(=O)N2C
RESULT: 253

QUERY: Supply reported Emax belonging to this compound: CC(C)C[C@H]1C(=O)N2CCCC[C@H]2C(=O)N[C@H](Cc2ccccc2)COc2cnc3c(F)cccc3c2C(=O)N[C@H](C(=O)NCCc2ccc(-n3nccn3)cc2)CC(=O)N1C
RESULT: 237

QUERY: Supply reported Emax belonging to this compound: COc1nccc2c1C(=O)N[C@H](C(=O)NCCc1cc(C3CC3)no1)CC(=O)N(C)[C@@H](CC(C)C)C(=O)N1CC[C@H](c3ccccc3)C[C@@H]1C(=O)N[C@H](Cc1ccccc1)CO2
RESULT: 314

QUERY: Supply reported Emax belonging to this compound: Cc1cc(CCNC(=O)[C@@H]2CC(=O)N(C)[C@@H](CC3CCCC3)C(=O)N3CCCC[C@@H]3C(=O)N[C@H](Cc3ccccc3)COc3ccc4c(C)noc4c3C(=O)N2)on1
RESULT: 175

QUERY: Supply reported Emax belonging to this compound: CC(C)C[C@H]1C(=O)N2CCOC[C@@H]2C(=O)N[C@H](Cc2ccccc2)COc2cnc3c(F)cccc3c2C(=O)N[C@H](C(=O)NCCc2ccc3c(c2)OCCO3)CC(=O)N1C
RESULT: 395

QUERY: Supply reported Emax belonging to this compound: COc1nccc2c1C(=O)N[C@H](C(=O)NCCc1noc(C3CC3)n1)CC(=O)N(C)[C@@H](CC(C)C)C(=O)N1CCCC[C@@H]1C(=O)N[C@H](Cc1ccccc1)CO2
RESULT: 311

More entries:
QUERY: Supply reported Emax belonging to this compound: COc1cccc(CCNC(=O)[C@@H]2CC(=O)N(C)[C@@H](CC(C)C)C(=O)N3CCN(C(C)=O)C[C@@H]3C(=O)N[C@H](Cc3ccccc3)COc3ccc4ccccc4c3C(=O)N2)c1
RESULT: 267

QUERY: Supply reported Emax belonging to this compound: Cc1cc(CCNC(=O)[C@@H]2CC(=O)N(C)[C@@H](CC(C)C)C(=O)N(C[C@H]3CCCC(C)(C)O3)CC(=O)N[C@H](Cc3ccccc3)COc3cnc4ccccc4c3C(=O)N2)on1
RESULT: 162
